Numbers sourced from patent US9051342B2.

Items are presented alongside their recorded melting point.

Completed entries (count: 5):
{"substance-smiles": "O=C(O)c1cccc(-c2ccn(-c3cccc(Br)c3)n2)c1", "melting point": "180 to 183 °C"}
{"substance-smiles": "Cc1nc(-c2cccc(C(=O)O)c2)nn1-c1ccc(Br)cc1", "melting point": "295 to 298 °C"}
{"substance-smiles": "O=C(O)c1cccc(-n2cnc(-c3ccc(O)cc3)n2)c1", "melting point": "307 to 311 °C"}
{"substance-smiles": "O=C(O)c1ccc(-c2cnn(-c3ccc(OC(F)(F)F)cc3)c2)cc1", "melting point": "246 to 248 °C"}
{"substance-smiles": "O=C(O)c1ccc(-c2ccn(-c3cccs3)n2)cc1", "melting point": "200 to 202 °C"}

For record COc1cccc(-c2ccn(-c3cccc(C(=O)O)c3)n2)c1 the listed melting point is 179 to 180 °C

For record O=C(O)c1cccc(-c2ccn(-c3cccnc3)n2)c1 the listed melting point is 235 to 236 °C

For record O=C(O)c1ccc(-n2cc(-c3cccc(OC(F)F)c3)cn2)cc1 the listed melting point is 220 to 222 °C

For record O=C(O)c1ccc(-c2ccn(-c3cccc(F)c3)c2)cc1 the listed melting point is 211 to 213 °C

For record O=C(O)c1ccc(-n2cc3c(n2)-c2ccccc2CC3)cc1 the listed melting point is 288 to 290 °C
